Data provenance is PubChem BioAssay (NCI).

System: 786-0 renal
Assay: NCI tumour cell line growth inhibition, 48 h
observed.property: GI50

{"columns": ["smi", "GI50"],
 "data": [
  ["Fc1ccc(Nc2nc(Nc3ccc(-c4nc5ccccc5[nH]4)cc3)nc(N3CCCC3)n2)cc1", "1.8 µM"],
  ["Cc1nc2cc(O)c(O)cc2cc1Oc1ccc(NC(=O)Nc2ccc(Cl)c(Cl)c2)cc1", "7.68 µM"]
]}

# input for lookup
The compound "O=C1NC(=NCc2ccccn2)S/C1=C\c1ccc2ncccc2c1" , when measured on 786-0 renal, yielded GI50 of 13.4 µM

---

System: NCI-H460 lung
Test: NCI tumour cell line growth inhibition, 48 h
Examples of compounds with documented TGI follow.

Example entries and their recorded answers appear below.
{"columns": ["compound", "TGI"],
 "data": [
  ["N#CC(C(=O)c1ccccc1F)c1nc2cc(C(F)(F)F)ccc2s1 (stereo not drawn)", "> 100 µM"],
  ["CCOC(=O)c1cc(-c2ccc(OC)c(OC)c2)cn1C", "> 10 µM"],
  ["O=C(CCN1CCCC1)Nc1ccc2c(NCCCCc3ccccc3)c3ccccc3nc2c1", "1.76 µM"],
  ["O=C(CC1C(=O)Nc2ccccc2S1=O)Nc1cccc(Cl)c1 (stereo not drawn)", "> 83.2 µM"]
]}

TGI recorded for this compound, CC(=O)OC1COC(N2C(=O)C(=O)c3cc(Br)c([N+](=O)[O-])cc32)C(OC(C)=O)C1OC(C)=O (stereo not drawn) , is > 100 µM

TGI recorded for this compound, "Cc1cc(S(N)(=O)=O)c(S/C(=N\NS(=O)(=O)c2ccc(Cl)cc2)c2ccc(Cl)cc2)cc1Cl" , is > 100 µM

TGI recorded for this compound, "COc1ccc(/C=C(/C(=O)N2CCNCC2)c2cc(OC)c(OC)c(OC)c2)cc1O" , is > 100 µM
